# tested-system: D(2) dopamine receptor (Rattus norvegicus)
# Sequence (P61169 whole entry): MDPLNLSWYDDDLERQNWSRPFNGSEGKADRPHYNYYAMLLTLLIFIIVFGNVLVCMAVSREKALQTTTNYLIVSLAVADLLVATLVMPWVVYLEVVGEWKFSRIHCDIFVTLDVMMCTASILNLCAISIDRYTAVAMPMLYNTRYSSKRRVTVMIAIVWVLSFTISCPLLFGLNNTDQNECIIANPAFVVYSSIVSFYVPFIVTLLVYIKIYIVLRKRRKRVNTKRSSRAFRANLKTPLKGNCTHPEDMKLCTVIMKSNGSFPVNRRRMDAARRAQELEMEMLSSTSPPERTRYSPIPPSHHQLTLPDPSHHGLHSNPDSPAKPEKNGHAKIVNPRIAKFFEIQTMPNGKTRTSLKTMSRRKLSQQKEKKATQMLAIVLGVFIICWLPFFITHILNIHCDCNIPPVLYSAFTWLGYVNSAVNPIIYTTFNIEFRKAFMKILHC
# assay-info: Binding affinity against Dopamine receptor D2 using [3H]spiroperidol
readout-type: pIC50
pIC50 here is simply -log10 of the concentration when that concentration is written in mol/L.

Ask: Identify the measured pIC50 of CC(C)[C@@]1(O)CCN2C[C@@H]3c4ccccc4CCc4cccc(c43)[C@H]2C1 for D(2) dopamine receptor (Rattus norvegicus).
Result: 6.05

Ask: What pIC50 appears in the records for this compound with D(2) dopamine receptor (Rattus norvegicus)? OCCN1CCN([C@H]2C[C@H](c3ccc(F)cc3)c3ccc(C(F)(F)F)cc32)CC1
Result: 6.23

Ask: Write down the reported pIC50 of CC(C)[C@]1(O)CCN2C[C@H]3c4ccccc4CCc4cccc(c43)[C@@H]2C1 , test system: D(2) dopamine receptor (Rattus norvegicus).
Result: 8.22

Ask: Query for D(2) dopamine receptor (Rattus norvegicus): what pIC50 does the record show for OCCN1CCN([C@@H]2C[C@@H](c3ccc(F)cc3)c3ccc(C(F)(F)F)cc32)CC1 ?
Result: 7.85
